target: Human PD-L1/PD-1 (Homo sapiens, UniProt Q9NZQ7); construct: made in house; host or cells: HEK293T; test: HTRF PD-1-Ig/PD-L1-His binding assay (human PD-L1); details: cluster symbol; read-out: HTRF IC50 cluster
Sequence (Q9NZQ7 with tags, fused parts or gaps): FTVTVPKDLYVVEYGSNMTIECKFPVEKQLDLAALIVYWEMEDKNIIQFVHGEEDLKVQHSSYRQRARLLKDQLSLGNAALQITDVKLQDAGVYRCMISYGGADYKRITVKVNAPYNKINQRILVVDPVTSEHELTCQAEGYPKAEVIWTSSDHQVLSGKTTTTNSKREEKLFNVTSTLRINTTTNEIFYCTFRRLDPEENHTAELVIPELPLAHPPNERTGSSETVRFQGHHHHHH
Positions of bridges follow the written chain, without caps; N, C: chain ends. Non-standard residues stand in square brackets, D forms with d. Residues, ends and D or L forms follow the SMILES beside them. Trp(7-aza) = N[C@@H](Cc1c[nH]c2ncccc12)C(=O)O; Bta = N[C@@H](Cc1csc2ccccc12)C(=O)O; Hyp = O=C(O)[C@@H]1C[C@@H](O)CN1; NMeNle = CCCC[C@H](NC)C(=O)O; NMeA = CN[C@@H](C)C(=O)O; Orn = NCCC[C@H](N)C(=O)O; Dab = NCC[C@H](N)C(=O)O; Dap = NC[C@H](N)C(=O)O; Sar = CNCC(=O)O
Parameter measured: IC50

>>> val("CCCC[C@H]1C(=O)N(C)[C@@H](CCCC)C(=O)N[C@@H](CN)C(=O)N[C@H](C(=O)NCC(N)=O)CSCC(=O)N[C@@H](Cc2ccc(O)cc2)C(=O)N2CCC[C@H]2C(=O)N[C@@H](CC(=O)O)C(=O)N2CCC[C@H]2C(=O)N[C@@H](CN)C(=O)N[C@@H](CC(=O)O)C(=O)N2C[C@H](O)C[C@H]2C(=O)N[C@@H](Cc2c[nH]c3ccccc23)C(=O)N[C@@H](CCN)C(=O)N[C@@H](Cc2csc3ccccc23)C(=O)N1C [Example 1222] ({CH2CO}-YPDP[Dap]D[Hyp]W[Dab][Bta][NMeNle][NMeNle][Dap]CG-NH2; thioether N-14)")
"0.00676 to 0.0303 µM"
>>> val("CCCC[C@H]1C(=O)N(C)[C@@H](CCCC)C(=O)N[C@@H](CCCNC(=N)N)C(=O)N[C@H](C(=O)NCC(N)=O)CSCC(=O)N[C@@H](Cc2ccccc2)C(=O)N(C)[C@@H](C)C(=O)N[C@@H](CC(N)=O)C(=O)N2CCC[C@H]2C(=O)N[C@@H](Cc2cnc[nH]2)C(=O)N[C@@H](CC(C)C)C(=O)N(C)CC(=O)N[C@@H](Cc2c[nH]c3ccccc23)C(=O)N[C@@H](CO)C(=O)N[C@@H](Cc2c[nH]c3ncccc23)C(=O)N1C [Example 1038] ({CH2CO}-F[NMeA]NPHL[Sar]WS[Trp(7-aza)][NMeNle][NMeNle]RCG-NH2; thioether N-14)")
"> 0.0305 µM"
>>> val("CCCC[C@H]1C(=O)N(C)[C@@H](CCCC)C(=O)N[C@@H](CCCNC(=N)N)C(=O)N[C@H](C(=O)NCC(N)=O)CSCC(=O)N[C@@H](Cc2ccccc2)C(=O)N(C)[C@@H](C)C(=O)N[C@@H](CC(N)=O)C(=O)N2CCC[C@H]2C(=O)N[C@@H](Cc2cnc[nH]2)C(=O)N[C@@H](CCC(N)=O)C(=O)N(C)CC(=O)N[C@@H](Cc2c[nH]c3ccccc23)C(=O)N[C@@H](CO)C(=O)N[C@@H](Cc2c[nH]c3ccccc23)C(=O)N1C [Example 6006] ({CH2CO}-F[NMeA]NPHQ[Sar]WSW[NMeNle][NMeNle]RCG-NH2; thioether N-14)")
"0.00676 to 0.0303 µM"
>>> val("CCCC[C@H]1C(=O)N(C)[C@@H](CCCC)C(=O)N[C@@H](CCCN)C(=O)N[C@H](C(=O)NCC(N)=O)CSCC(=O)N[C@@H](Cc2ccccc2)C(=O)N(C)[C@@H](C)C(=O)N[C@@H](CC(N)=O)C(=O)N2CCC[C@H]2C(=O)N[C@@H](Cc2cnc[nH]2)C(=O)N[C@@H](CC(C)C)C(=O)N(C)CC(=O)N[C@@H](Cc2c[nH]c3ccccc23)C(=O)N[C@@H](CO)C(=O)N[C@@H](Cc2c[nH]c3ccccc23)C(=O)N1C [Example 1055] ({CH2CO}-F[NMeA]NPHL[Sar]WSW[NMeNle][NMeNle][Orn]CG-NH2; thioether N-14)")
"0.00676 to 0.0303 µM"
